- Protocol: chemical genetic growth profiling, strain panel (AID 1159580);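 further: tested at 20 µM; growth read once vehicle control cultures reached saturation at 30 °C; 1 = growth at the plate median or of vehicle wells; lower values mean less growth of the strain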
- Measurement context: S. cerevisiae deletion strains, growth OD, locus YNL271C, strain bni1, hits give low values
Hit rate of the full screen: of about 5,500 compounds, about 2,000 (36%) were called active. About 18% were inconclusive and are not listed. Some of the results follow.
Measurement name: normalized growth
Give the figure only, with no unit attached.

# count of solved cases: 2
molecule=CCOCN(C(=O)CCl)c1c(C)cccc1CC measurement_name="normalized growth" numeric_result=0.994
molecule="Oc1cc2c(cc1O)C1c3ccc(O)c(O)c3OCC1(O)C2 (stereo not drawn)" measurement_name="normalized growth" numeric_result=0.988

Consider the additional molecule presented here.
Task: Which measured normalized growth value corresponds to Oc1ccc2c(c1)OCC1(O)Cc3cc(O)c(O)cc3C21 (stereo not drawn) ?
Result: 0.983

###

- Protocol: chemical genetic growth profiling, strain panel (AID 1159580);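 further: tested at 20 µM; growth read once vehicle control cultures reached saturation at 30 °C; 1 = growth at the plate median or of vehicle wells; lower values mean less growth of the strain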
- Measurement context: S. cerevisiae deletion strains, growth OD, locus YCL061C, strain MRC1, hits give low values
Screen size: about 5,500 compounds; about 2,000 (36%) were called active. Inconclusive results (about 18%) are left out. This is one part of the list. Where a SMILES comes first, the peptide text is derived from it.
Measurement name: normalized growth
Enter the number alone.

Below are worked cases with known answers.
compound=O=c1c(O)c(-c2ccc(O)c(O)c2)oc2c(O)c(O)cc(O)c12 measurement_name="normalized growth" numeric_result=0.989
compound="COC(=O)[C@H](Cc1ccccc1)NC(=O)[C@@H](N)CC(=O)O (H-Asp-Phe-OMe)" measurement_name="normalized growth" numeric_result=1.01
compound="NC(=O)NCCCC(N)C(=O)O (stereo not given)" measurement_name="normalized growth" numeric_result=0.992
compound=Cc1cc(C2CCCCC2)n(O)c(=O)c1 measurement_name="normalized growth" numeric_result=0.0677
compound="CNC(C)C(O)c1ccccc1 (stereo not given)" measurement_name="normalized growth" numeric_result=1.02
compound="CCC(c1ccc(O)cc1)C(CC)c1ccc(O)cc1 (stereo not given)" measurement_name="normalized growth" numeric_result=0.958

Task: Suppose we examine the compound CC(CC(O)C1OC1(C)C)[C@@H]1CCC2(C)C3=CCC4C(C)(C)C(=O)CCC4(C)C3CC[C@@]12C (stereo not given in full) ; what normalized growth value has been reported?
Result: 0.994

Task: Which normalized growth value is on record for CC/C(=C(/CC)c1ccc(O)cc1)c1ccc(O)cc1 ?
Result: 1

###

- Protocol: chemical genetic growth profiling, strain panel (AID 1159580);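 further: tested at 20 µM; growth read once vehicle control cultures reached saturation at 30 °C; 1 = growth at the plate median or of vehicle wells; lower values mean less growth of the strain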
- Measurement context: S. cerevisiae deletion strains, growth OD, locus YOL006C, strain TOP1, hits give low values
In all, about 5,500 compounds went through this assay and about 2,000 (36%) were called active. Another 18% or so got no clear call; they are omitted. This is one part of the list.
The class of a record is decided solely by its measured normalized growth; consult lo = under 0.6, mid = from 0.6 up to 1, hi = 1 and over

compound="C[C@@H]1CC[C@@]2(OC1)O[C@H]1CC3C4CC[C@H]5C[C@@H](O)CC[C@]5(C)C4CC[C@]3(C)[C@H]1[C@@H]2C (stereo partly specified)" classification=hi
compound="CC(C)c1c(O)c(-c2cc3c(c(C(C)C)c2O)CCC2C(C)(C)CCC[C@]32C)cc2c1CCC1C(C)(C)CCC[C@]21C (stereo partly specified)" classification=hi
compound="CC12CCC3c4ccc(OCc5ccccc5)cc4CCC3C1C[C@@H](O)[C@@H]2O (stereo partly specified)" classification=lo
compound="COc1ccc2c3c1OC1C(O)CC=C4C(C2)N(C)CCC431 (stereo unspecified)" classification=hi

Task: // bin(item) where item = COc1ccc2c(c1C(C)C)CCC1C(C)(C)C(=O)CCC21C (stereo unspecified)
Result: mid

Task: // return the class label for CC(C)C1COc2cc3oc(=O)ccc3cc2O1 (stereo unspecified)
Result: lo

Task: Entry O=[N+]([O-])c1ccc(OCCCOc2ccc([N+](=O)[O-])cc2)cc1 belongs to which category?
Result: mid

Task: GET /class?item= COc1ccccc1NC(=O)NCCSCc1ccccc1Cl
Result: mid

Task: Each compound maps to one class by normalized growth. Which class for CCC(N)C(O)c1ccc(O)c(O)c1 (stereo unspecified) ?
Result: hi

Task: Using the reported normalized growth, which band applies to COc1ccccc1/C=C\C(=O)O ?
Result: hi

Task: Field: class (normalized growth) — entry: CC(C)c1c(O)ccc2c1CCC1C(C)(C)CCC[C@]21C (stereo partly specified)
Result: lo

Task: Just checking, what class would you give Cc1cc(C)c(CSCCNC(=O)Nc2ccc(F)cc2F)c(C)c1 here?
Result: hi

Task: Field: class (normalized growth) — entry: S=c1nccc(-c2ccc(Cl)cc2)[nH]1
Result: lo

Task: GET /class?item= CCOC(=O)C1C(c2cccnc2)C(C(=O)OCC)C(O)(C(F)(F)F)NC1(O)C(F)(F)F (stereo unspecified)
Result: mid

Task: Please report the category associated with COc1ccc2c(c1)CCC1C2CC[C@@]2(C)C1CC[C@@H]2O (stereo partly specified) , nothing else.
Result: lo
